Biological target: TXK (Homo sapiens, UniProt P42681)
Sequence (P42681 1-527): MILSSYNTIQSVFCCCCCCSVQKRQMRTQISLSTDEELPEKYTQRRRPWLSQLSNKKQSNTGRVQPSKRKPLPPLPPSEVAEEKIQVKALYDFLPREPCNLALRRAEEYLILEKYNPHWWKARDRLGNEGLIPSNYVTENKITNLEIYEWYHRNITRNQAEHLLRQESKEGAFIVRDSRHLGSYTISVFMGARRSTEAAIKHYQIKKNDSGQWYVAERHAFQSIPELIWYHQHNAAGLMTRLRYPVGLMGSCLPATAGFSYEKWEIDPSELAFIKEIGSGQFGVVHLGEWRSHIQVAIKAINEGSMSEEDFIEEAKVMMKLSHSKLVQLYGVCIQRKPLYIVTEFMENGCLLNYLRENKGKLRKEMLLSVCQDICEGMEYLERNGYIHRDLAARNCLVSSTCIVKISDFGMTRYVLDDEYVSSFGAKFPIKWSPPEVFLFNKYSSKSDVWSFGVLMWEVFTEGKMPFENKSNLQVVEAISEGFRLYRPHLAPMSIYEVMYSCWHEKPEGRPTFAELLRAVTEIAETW
endpoint: IC50

Annotate the compound `C=CC(=O)N1CCCC[C@@H](n2c(NC(=O)c3ccnc(C)c3)nc3cccc(OC4CCN(C(C)=O)CC4)c32)C1` with its measured IC50.
≤ 0.01 µM

###

Molecular target: BTK (Homo sapiens)
Sequence (Q06187 whole entry): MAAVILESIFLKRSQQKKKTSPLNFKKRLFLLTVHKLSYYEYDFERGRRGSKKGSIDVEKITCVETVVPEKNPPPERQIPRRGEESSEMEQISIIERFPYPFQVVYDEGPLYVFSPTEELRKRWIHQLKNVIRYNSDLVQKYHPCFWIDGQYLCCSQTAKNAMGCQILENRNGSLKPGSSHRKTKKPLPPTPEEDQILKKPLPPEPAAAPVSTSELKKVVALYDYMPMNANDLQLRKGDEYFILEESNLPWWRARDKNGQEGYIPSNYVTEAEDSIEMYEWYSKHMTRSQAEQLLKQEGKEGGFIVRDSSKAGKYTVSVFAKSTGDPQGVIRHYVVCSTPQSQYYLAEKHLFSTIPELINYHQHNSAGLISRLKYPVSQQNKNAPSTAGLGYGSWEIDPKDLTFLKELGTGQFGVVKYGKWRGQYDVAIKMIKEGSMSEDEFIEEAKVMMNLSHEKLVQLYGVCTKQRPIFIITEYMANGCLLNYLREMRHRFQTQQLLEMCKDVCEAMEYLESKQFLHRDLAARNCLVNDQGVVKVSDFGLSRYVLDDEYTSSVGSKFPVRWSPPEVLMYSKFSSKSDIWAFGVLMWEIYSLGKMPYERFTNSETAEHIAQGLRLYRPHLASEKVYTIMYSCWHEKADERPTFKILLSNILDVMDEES
endpoint: IC50

Find the measured IC50 of C=CC(=O)N1CCCC[C@@H](n2c(NC(=O)c3ccnc(C)c3)nc3cccc(OC4CCN(C(C)=O)CC4)c32)C1 [Compound A2] with BTK (Homo sapiens) as test system.
≤ 10 nM
